Source of measurements: ChEMBL document CHEMBL4706699

// reported remaining at 0.75 h, 1 µM per item
- Test: Metabolic stability in rat liver microsomes assessed as parent compound remaining at 1 uM incubated for 45 mins
- Format: ADME, Microsome
- Experimental context: read-out: Stabilty
Assay metric: remaining at 0.75 h, 1 µM

| Molecular string | Obs value |
| --- | --- |
| CCCc1cncc2c1CC[C@@H]1CNCCN21 | 14% |
| CCCc1cccc2c1CC[C@@H]1CNCCN21 | 38% |
| c1cc(CC2CCC2)c2c(n1)N1CCNC[C@H]1CC2 | 67% |
| FC(F)(F)CCc1cccc2c1CC[C@@H]1CNCCN21 | 23% |
| FC(F)(F)CCc1ccnc2c1CC[C@@H]1CNCCN21 | 80% |
| CC(C)Cc1ccnc2c1CC[C@@H]1CNCCN21 | 24% |
| CCCc1ccnc2c1CC[C@@H]1CNCCN21 | 27% |
